Tested on: HCI01 (cells of a triple-negative basal-like breast cancer xenograft);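 also: PDX cells carrying CMV promoter-driven luciferase, viability read as total photon flux per second by IVIS imaging following D-luciferin, vehicle control 0.1% DMSO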
Assay: cell viability (% of vehicle); higher = less cytotoxic
Conditions: 10 µM; 72 h
parameter: cell viability

[
  {
    "molecule": "Cc1nccn1CC1CCc2c(c3ccccc3n2C)C1=O.Cl (stereo unspecified) [Ondansetron HCl]",
    "parameter": "cell viability",
    "assay.value": 126
  },
  {
    "molecule": "CCc1ccc(CCOc2ccc(CC3SC(=O)NC3=O)cc2)nc1.Cl (stereo unspecified) [Pioglitazone HCl]",
    "parameter": "cell viability",
    "assay.value": 119
  },
  {
    "molecule": "COc1cnc(NS(=O)(=O)c2ccc(N)cc2)nc1",
    "parameter": "cell viability",
    "assay.value": 97.7
  },
  {
    "molecule": "CN(CCOc1ccc(NS(C)(=O)=O)cc1)CCc1ccc(NS(C)(=O)=O)cc1 [Dofetilide]",
    "parameter": "cell viability",
    "assay.value": 102
  },
  {
    "molecule": "OCC1OC(O)C(O)C(O)C1O (stereo unspecified)",
    "parameter": "cell viability",
    "assay.value": 123
  },
  {
    "molecule": "Cl.Cl.OCCOCCN1CCN(C(c2ccccc2)c2ccc(Cl)cc2)CC1 (stereo unspecified) [Hydroxyzine 2HCl]",
    "parameter": "cell viability",
    "assay.value": 169
  },
  {
    "molecule": "CCN(CC)CCOC(=O)C(c1ccccc1)c1ccccc1.Cl [Adiphenine HCl]",
    "parameter": "cell viability",
    "assay.value": 93.1
  },
  {
    "molecule": "OCCN1CC(O)C(O)C(O)C1CO (stereo unspecified)",
    "parameter": "cell viability",
    "assay.value": 68.9
  },
  {
    "molecule": "CC(=O)NCC1CN(c2ccc(N3CCOCC3)c(F)c2)C(=O)O1 (stereo unspecified)",
    "parameter": "cell viability",
    "assay.value": 99.5
  },
  {
    "molecule": "COC1=C(OC)C(=O)C(CCCCCCCCCCO)=C(C)C1=O",
    "parameter": "cell viability",
    "assay.value": 34
  },
  {
    "molecule": "CC(=O)O[C@H]1C(=O)[C@@]2(C)[C@H]([C@H](OC(=O)c3ccccc3)[C@]3(O)C[C@H](OC(=O)[C@H](O)[C@@H](NC(=O)c4ccccc4)c4ccccc4)C(C)=C1C3(C)C)[C@]1(OC(C)=O)CO[C@@H]1C[C@@H]2O",
    "parameter": "cell viability",
    "assay.value": 124
  },
  {
    "molecule": "CN1CCN(c2nc(C3=C(c4c[nH]c5ccccc45)C(=O)NC3=O)c3ccccc3n2)CC1",
    "parameter": "cell viability",
    "assay.value": 134
  },
  {
    "molecule": "[O-]n1ccccc1=S.[O-]n1ccccc1=S.[Zn+2]",
    "parameter": "cell viability",
    "assay.value": 16
  },
  {
    "molecule": "CCCCCCOC(=O)N=C(N)c1ccc(NCc2nc3cc(C(=O)N(CCC(=O)OCC)c4ccccn4)ccc3n2C)cc1.CS(=O)(=O)O [Dabigatran etexilate mesylate]",
    "parameter": "cell viability",
    "assay.value": 98.8
  },
  {
    "molecule": "Cl.O=C1OC(CN2CCOCC2)CN1N=Cc1ccc([N+](=O)[O-])o1 (stereo unspecified) [Furaltadone HCl]",
    "parameter": "cell viability",
    "assay.value": 75.8
  },
  {
    "molecule": "CC(=O)Nc1ncc([N+](=O)[O-])s1 [Nithiamide]",
    "parameter": "cell viability",
    "assay.value": 112
  }
]
